pIC50: −log10 of the molar value.
The following molecules each carry a recorded pIC50 for human ATX (Homo sapiens (Human), UniProt Q13822).

molecule: Cc1cc(OCc2n[nH]c3nc(N4CC(O)C4)ncc23)c(C(C)(C)C)cc1Cl
experimental_target: human ATX (Homo sapiens (Human), UniProt Q13822)
pIC50: 8.00

molecule: Cn1c(COc2cc(F)c(Cl)cc2C(C)(C)C)n[nH]c1=O
experimental_target: human ATX (Homo sapiens (Human), UniProt Q13822)
pIC50: 8.00

molecule: Cc1cc(OCc2n[nH]c(=O)n2C)c(-c2ccccc2Cl)cc1Cl
experimental_target: human ATX (Homo sapiens (Human), UniProt Q13822)
pIC50: 9.00

molecule: Cc1cc(OCc2n[nH]c(=O)n2C)c(-c2cc(OCC3CCCO3)ccc2F)cc1Cl (stereo not drawn)
experimental_target: human ATX (Homo sapiens (Human), UniProt Q13822)
pIC50: 8.22

molecule: Cc1cc(OCc2n[nH]c(=O)n2C)c(-c2cc(CN(C)C(=O)C3CC3)ccc2F)cc1Cl
experimental_target: human ATX (Homo sapiens (Human), UniProt Q13822)
pIC50: 8.30

molecule: Cc1cc(OCc2n[nH]c(=O)n2C)c(-c2cccc(Cl)n2)cc1Cl
experimental_target: human ATX (Homo sapiens (Human), UniProt Q13822)
pIC50: 7.19

molecule: COC(=O)c1cccc(-c2cc(Cl)c(C)cc2OCc2n[nH]c(=O)n2C)c1
experimental_target: human ATX (Homo sapiens (Human), UniProt Q13822)
pIC50: 7.68

molecule: COC(=O)c1ccc(C)c(-c2cc(Cl)c(C)cc2OCc2n[nH]c(=O)n2C)c1
experimental_target: human ATX (Homo sapiens (Human), UniProt Q13822)
pIC50: 8.10

molecule: Cc1cc(OCc2n[nH]c(=O)n2C)c(-c2cc(CN3CCOC3=O)ccc2F)cc1Cl
experimental_target: human ATX (Homo sapiens (Human), UniProt Q13822)
pIC50: 8.10

molecule: Cn1c(COc2cc(S(C)(=O)=O)c(Cl)cc2C2CC2)n[nH]c1=O
experimental_target: human ATX (Homo sapiens (Human), UniProt Q13822)
pIC50: 5.72

molecule: Cc1cc(OCc2n[nH]c3nc(OCC(O)CO)ccc23)c(C(C)(C)C)cc1Cl (stereo not drawn)
experimental_target: human ATX (Homo sapiens (Human), UniProt Q13822)
pIC50: 8.22

molecule: CCOc1ccc(F)c(-c2cc(Cl)c(C)cc2OCc2n[nH]c(=O)n2C)c1
experimental_target: human ATX (Homo sapiens (Human), UniProt Q13822)
pIC50: 8.05

molecule: Cc1cc(OCc2n[nH]c(=O)n2C)c(-c2cccc(C(=O)O)c2)cc1Cl
experimental_target: human ATX (Homo sapiens (Human), UniProt Q13822)
pIC50: 5.96

molecule: CCOC(=O)CNC(=O)c1cccc(-c2cc(Cl)c(C)cc2OCc2n[nH]c(=O)n2C)c1
experimental_target: human ATX (Homo sapiens (Human), UniProt Q13822)
pIC50: 8.15

molecule: Cn1c(COc2cc(C#N)ccc2C(C)(C)C)n[nH]c1=O
experimental_target: human ATX (Homo sapiens (Human), UniProt Q13822)
pIC50: 7.04

molecule: Cc1cc(OCc2n[nH]c3c2CCNC3)c(C(C)(C)C)cc1Cl
experimental_target: human ATX (Homo sapiens (Human), UniProt Q13822)
pIC50: 7.72

molecule: COc1ncccc1-c1cc(Cl)c(C)cc1OCc1n[nH]c2cnccc12
experimental_target: human ATX (Homo sapiens (Human), UniProt Q13822)
pIC50: 7.96

molecule: Cc1cc(OCc2n[nH]c(=O)n2C)c(-c2ccnn2C)cc1Cl
experimental_target: human ATX (Homo sapiens (Human), UniProt Q13822)
pIC50: 6.33
